Measured values drawn from patent US20230242530A1 for this set.

target: isolated recombinant JAK2 kinase domain (Homo sapiens, UniProt O60674); construct: isolated recombinant JAK1 and JAK2 kinase domain; experiment: JAK enzyme assay, JAK2 kinase domain (Caliper LabChip); conditions: 0.2 nM JAK2, ATP 25 μM, Morrison tight binding model
Sequence (O60674 849-1124 limits assumed): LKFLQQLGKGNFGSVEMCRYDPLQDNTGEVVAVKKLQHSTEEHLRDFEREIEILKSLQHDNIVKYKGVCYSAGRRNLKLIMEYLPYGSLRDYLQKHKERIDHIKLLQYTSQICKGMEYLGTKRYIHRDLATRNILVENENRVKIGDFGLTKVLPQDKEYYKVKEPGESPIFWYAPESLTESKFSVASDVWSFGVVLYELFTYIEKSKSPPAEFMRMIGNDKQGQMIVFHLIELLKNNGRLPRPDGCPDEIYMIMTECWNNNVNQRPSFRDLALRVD

{"COMPOUND": "CSc1cnn(C2(CC#N)CN(c3cccn4nc(Nc5cn[nH]c5)nc34)C2)c1 [Example 144]", "Ki / nM": 0.3}
{"COMPOUND": "CCN1CCN(C(=O)Cn2cc(Nc3nc4c(N5CC(CC#N)(c6cccc(SC)c6)C5)cccn4n3)cn2)CC1 [Example 80]", "Ki / nM": 0.8}
{"COMPOUND": "CCc1cnn(C2(CC#N)CN(c3cccn4nc(Nc5cnn(CC(=O)N6CCC(N(C)CC7(C#N)CC7)CC6)c5)nc34)C2)c1 [Example 45]", "Ki / nM": 0.8}
{"COMPOUND": "N#CCC1(n2cc(CCF)cn2)CN(c2cccn3nc(Nc4cn[nH]c4)nc23)C1 [Example 149]", "Ki / nM": 0.6}
{"COMPOUND": "CN1CCN(C(=O)Cn2cc(Nc3nc4c(N5CC(CC#N)(c6ccc(Cl)c(F)c6)C5)cccn4n3)cn2)CC1 [Example 23]", "Ki / nM": 6.1}
{"COMPOUND": "N#CCC1(n2cc(OC(F)F)cn2)CN(c2cccn3nc(Nc4cn[nH]c4)nc23)C1 [Example 146]", "Ki / nM": 0.3}
{"COMPOUND": "CCc1cnn(C2(CC#N)CN(c3cccn4nc(Nc5cnn(CC(=O)N6CCC(NCC(C)(C)C#N)CC6)c5)nc34)C2)c1 [Example 33]", "Ki / nM": 0.2}
{"COMPOUND": "CCc1cnn(C2(CC#N)CN(c3cccn4nc(Nc5ccc6c(c5)CCN(C5COC5)C6)nc34)C2)c1 [Example 51]", "Ki / nM": 1.6}
{"COMPOUND": "CCc1cnn(C2(CC#N)CN(c3cccn4nc(Nc5cnn(CC(=O)N6CCC(CN7CCN(C(=O)OC)CC7)CC6)c5)nc34)C2)c1 [Example 39]", "Ki / nM": 1.6}
{"COMPOUND": "CN1CCN(C(=O)Cn2cc(Nc3nc4c(N5CC(CC#N)(n6cccn6)C5)cccn4n3)cn2)CC1 [Example 18]", "Ki / nM": 1.5}
{"COMPOUND": "CN1CCN(C(=O)Cn2cc(Nc3nc4c(N5CC(CC#N)(n6cc(CCc7ccccc7)cn6)C5)cccn4n3)cn2)CC1 [Example 59]", "Ki / nM": 0.2}
{"COMPOUND": "CCc1cnn(C2(CC#N)CN(c3cccn4nc(Nc5cnn(CC(=O)N6CCN(CCCC#N)CC6)c5)nc34)C2)c1 [Example 68]", "Ki / nM": 0.5}
{"COMPOUND": "CN1CCN(C(=O)Cn2cc(Nc3nc4c(N5CC(CC#N)(c6ccc(Cl)cc6)C5)cccn4n3)cn2)CC1 [Example 7]", "Ki / nM": 50.4}
{"COMPOUND": "CN(CC(C)(C)C#N)C1CCN(C(=O)Cn2cc(Nc3nc4c(N5CC(CC#N)(n6cc(C(F)(F)F)cn6)C5)cccn4n3)cn2)CC1 [Example 108]", "Ki / nM": 0.4}

###

molecular target: isolated recombinant JAK2 kinase domain (Homo sapiens); construct: isolated recombinant JAK1 and JAK2 kinase domain; assay: JAK enzyme assay, JAK2 kinase domain (Caliper LabChip); conditions: 0.2 nM JAK2, ATP 25 μM, Morrison tight binding model
pKi: −log10 of the molar value.
Below is a list of entries, each paired with its recorded pKi value.
PARAMETER_MEASURED: pKi

{"ITEM_SMILES": "CSc1cccc(C2(CC#N)CN(c3cccn4nc(Nc5cnn(CC(=O)N6CCC(N7CCOCC7)CC6)c5)nc34)C2)c1", "NUMERIC_READOUT": 9.70}
{"ITEM_SMILES": "CN1CCN(C(=O)Cn2cc(Nc3nc4c(N5CC(CC#N)(n6cc(CCO)cn6)C5)cccn4n3)cn2)CC1", "NUMERIC_READOUT": 8.64}
{"ITEM_SMILES": "COc1cnn(C2(CC#N)CN(c3cccn4nc(Nc5cn[nH]c5)nc34)C2)c1", "NUMERIC_READOUT": 9.05}
{"ITEM_SMILES": "CN1CCN(C(=O)c2cccc(Nc3nc4c(N5CC(CC#N)(n6cc(C(F)(F)F)cn6)C5)cccn4n3)c2)CC1", "NUMERIC_READOUT": 9.05}
{"ITEM_SMILES": "CCc1cnn(C2(CC#N)CN(c3cccn4nc(Nc5ccc(C(=O)N6CCN(C)CC6)cc5)nc34)C2)c1", "NUMERIC_READOUT": 8.39}
{"ITEM_SMILES": "CN1CCN(C(=O)Cn2cc(Nc3nc4c(N5CC(CC#N)(N6CCC(C(F)(F)F)CC6)C5)cccn4n3)cn2)CC1", "NUMERIC_READOUT": 8.24}
{"ITEM_SMILES": "CCc1cccc(C2(CC#N)CN(c3cccn4nc(Nc5cnn(CC(=O)N6CCN(C)CC6)c5)nc34)C2)c1", "NUMERIC_READOUT": 9.52}
{"ITEM_SMILES": "CN1CCN(C(=O)Cn2cc(Nc3nc4c(N5CC(CC#N)(n6cc(Br)cn6)C5)cccn4n3)cn2)CC1", "NUMERIC_READOUT": 7.80}
{"ITEM_SMILES": "Cn1cc(Nc2nc3c(N4CC(CC#N)(n5cc(C(F)(F)F)cn5)C4)cccn3n2)cn1", "NUMERIC_READOUT": 9.30}
{"ITEM_SMILES": "COCCN1CCN(C(=O)Cn2cc(Nc3nc4c(N5CC(CC#N)(c6cccc(Cl)c6)C5)cccn4n3)cn2)CC1", "NUMERIC_READOUT": 9.00}
{"ITEM_SMILES": "CCc1cnn(C2(CC#N)CN(c3cccn4nc(Nc5ccc(C(=O)N6CC7(CCN(C8COC8)CC7)C6)cc5)nc34)C2)c1", "NUMERIC_READOUT": 9.70}
{"ITEM_SMILES": "N#CCC1(n2cc(C(F)(F)F)cn2)CN(c2cccn3nc(Nc4ccc(CC(=O)N5CCN(C6COC6)CC5)cc4)nc23)C1", "NUMERIC_READOUT": 7.64}
{"ITEM_SMILES": "CCc1cnn(C2(CC#N)CN(c3cccn4nc(Nc5cnn[nH]5)nc34)C2)c1", "NUMERIC_READOUT": 10.00}
{"ITEM_SMILES": "CSc1cnn(C2(CC#N)CN(c3cccn4nc(Nc5cnn(C)c5)nc34)C2)c1", "NUMERIC_READOUT": 9.22}
{"ITEM_SMILES": "CCc1cnn(C2(CC#N)CN(c3cccn4nc(Nc5ccc(C(=O)N6CC(C(=O)N7CCN(C)CC7)C6)cc5)nc34)C2)c1", "NUMERIC_READOUT": 8.89}
